target: ABCB1 (Homo sapiens, UniProt P08183); experiment: Ex vivo [^3H]-digoxin accumulation in hPCIS prepared from the jejunum; conditions: compound 20 µM; hPCIS
Sequence (P08183 whole entry): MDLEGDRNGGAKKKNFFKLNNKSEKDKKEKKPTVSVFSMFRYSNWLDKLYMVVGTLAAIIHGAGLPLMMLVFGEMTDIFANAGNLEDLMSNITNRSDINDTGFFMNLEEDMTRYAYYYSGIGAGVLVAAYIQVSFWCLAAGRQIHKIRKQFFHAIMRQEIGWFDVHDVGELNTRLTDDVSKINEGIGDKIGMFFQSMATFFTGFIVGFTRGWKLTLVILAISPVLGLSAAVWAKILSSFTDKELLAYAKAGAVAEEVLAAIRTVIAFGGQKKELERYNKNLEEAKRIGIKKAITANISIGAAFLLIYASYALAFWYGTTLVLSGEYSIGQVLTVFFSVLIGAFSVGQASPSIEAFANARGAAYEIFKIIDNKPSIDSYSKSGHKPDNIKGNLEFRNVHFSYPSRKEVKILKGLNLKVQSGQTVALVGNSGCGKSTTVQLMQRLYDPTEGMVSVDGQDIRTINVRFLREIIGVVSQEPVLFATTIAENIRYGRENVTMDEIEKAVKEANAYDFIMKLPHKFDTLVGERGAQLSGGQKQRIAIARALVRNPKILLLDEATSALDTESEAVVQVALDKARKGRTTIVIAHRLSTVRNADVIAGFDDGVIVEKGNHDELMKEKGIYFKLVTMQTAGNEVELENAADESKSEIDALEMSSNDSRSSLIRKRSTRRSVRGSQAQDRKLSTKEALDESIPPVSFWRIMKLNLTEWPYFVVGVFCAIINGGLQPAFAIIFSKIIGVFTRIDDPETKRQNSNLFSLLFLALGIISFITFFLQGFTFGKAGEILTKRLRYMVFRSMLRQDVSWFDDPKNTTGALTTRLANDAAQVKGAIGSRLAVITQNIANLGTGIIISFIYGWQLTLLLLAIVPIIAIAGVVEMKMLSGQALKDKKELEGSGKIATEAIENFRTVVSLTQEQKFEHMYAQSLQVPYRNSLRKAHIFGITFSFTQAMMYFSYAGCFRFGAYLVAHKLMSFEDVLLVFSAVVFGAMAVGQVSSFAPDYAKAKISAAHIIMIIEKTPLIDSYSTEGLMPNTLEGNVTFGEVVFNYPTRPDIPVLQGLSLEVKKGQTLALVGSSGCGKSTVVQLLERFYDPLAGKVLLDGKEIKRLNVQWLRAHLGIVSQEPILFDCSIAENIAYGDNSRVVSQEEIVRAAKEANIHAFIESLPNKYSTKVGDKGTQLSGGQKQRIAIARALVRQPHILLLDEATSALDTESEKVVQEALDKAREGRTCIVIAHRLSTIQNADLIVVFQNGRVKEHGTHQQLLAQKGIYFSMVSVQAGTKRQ
resultType: Digoxin Inhibition in human PCIS (in words)

1) CC(C)(C)NC(=O)[C@@H]1C[C@@H]2CCCC[C@@H]2CN1C[C@@H](O)[C@H](Cc1ccccc1)NC(=O)[C@H](CC(N)=O)NC(=O)c1ccc2ccccc2n1 :: YES

====

Experiment: Solubility
Type: physicochemical
Conditions: incubation medium, 0.1% DMSO
Experimental: The stock solutions were stored at −20 °C before use. The final concentration of DMSO was 0.1% in all experiments. The final concentrations of EtOH in hPCIS and Caco-2 cells were 0.03% and 0.012%, respectively.
resultType: Solubility (in words)

1) COC(=O)N[C@H](C(=O)N1CCC[C@H]1c1nc(-c2ccc3c(c2)O[C@@H](c2ccccc2)n2c-3cc3cc(-c4c[nH]c([C@@H]5CCCN5C(=O)[C@@H](NC(=O)OC)C(C)C)n4)ccc32)c[nH]1)C(C)C [Elbasvir, elbasvir] :: low solubility
2) COC[C@H]1C[C@@H](c2ncc(-c3ccc4c(c3)COc3cc5c(ccc6nc([C@@H]7CC[C@H](C)N7C(=O)[C@@H](NC(=O)OC)C(C)C)[nH]c65)cc3-4)[nH]2)N(C(=O)[C@H](NC(=O)OC)c2ccccc2)C1 [Velpatasvir, velpatasvir] :: limited solubility
3) C[C@@H]1CCO[C@H]2Cn3cc(C(=O)NCc4ccc(F)cc4F)c(=O)c(O)c3C(=O)N12 [Dolutegravir, dolutegravir] :: limited solubility
4) Cc1cc(C#N)cc(C)c1Oc1nc(Nc2ccc(C#N)cc2)nc(N)c1Br [Etravirine, etravirine] :: low solubility
5) COC(=O)N[C@H](C(=O)N1CC2(CC2)C[C@H]1c1ncc(-c2ccc3c(c2)C(F)(F)c2cc(-c4ccc5nc([C@@H]6[C@H]7CC[C@H](C7)N6C(=O)[C@@H](NC(=O)OC)C(C)C)[nH]c5c4)ccc2-3)[nH]1)C(C)C [Ledipasvir, ledipasvir] :: low solubility

====

biological target: ABCB1 (Homo sapiens); assay: Ex vivo [^3H]-digoxin accumulation in hPCIS prepared from the jejunum; settings: compound 50 µM; hPCIS
resultType: Digoxin Inhibition in human PCIS (in words)

1. Cc1cccc(C)c1OCC(=O)N[C@@H](Cc1ccccc1)[C@@H](O)C[C@H](Cc1ccccc1)NC(=O)[C@H](C(C)C)N1CCCNC1=O :: YES
2. COC(=O)N[C@H](C(=O)N[C@@H](Cc1ccccc1)[C@@H](O)CN(Cc1ccc(-c2ccccn2)cc1)NC(=O)[C@@H](NC(=O)OC)C(C)(C)C)C(C)(C)C :: YES

====

target: ABCB1 (Homo sapiens, UniProt P08183); assay: Ex vivo [^3H]-digoxin accumulation in hPCIS prepared from the jejunum; conditions: compound 20 µM; hPCIS
resultType: Digoxin Inhibition in human PCIS (in words)

1. COC(=O)N[C@H](C(=O)N1CCC[C@H]1c1nc(-c2ccc(-c3ccc(-c4c[nH]c([C@@H]5CCCN5C(=O)[C@@H](NC(=O)OC)C(C)C)n4)cc3)cc2)c[nH]1)C(C)C [Daclatasvir, daclatasvir] :: YES
2. Cc1cc(C#N)cc(C)c1Oc1nc(Nc2ccc(C#N)cc2)nc(N)c1Br [Etravirine, etravirine] :: did not inhibit
3. COC(=O)N[C@H](C(=O)N[C@@H](Cc1ccccc1)[C@@H](O)CN(Cc1ccc(-c2ccccn2)cc1)NC(=O)[C@@H](NC(=O)OC)C(C)(C)C)C(C)(C)C [Atazanavir, atazanavir] :: did not inhibit
